# Test system: SK-OV-3 ovarian
# Measurement description: NCI-60 one-dose screen, 48 h (100 = growth as untreated, 0 = no growth, -100 = all killed)
# Conditions: 10 µM unless noted
The panel holds about 83,000 compounds, 20% with a hit somewhere; the sample as a whole holds those more often.
Rule: growth under 80% gives Not satisfied, otherwise Satisfied.

Examples from the recorded data:
| Compound | Assigned category |
| --- | --- |
| CC(C)[C@]12O[C@H]1[C@@H]1O[C@]13[C@]1(O[C@H]1C[C@H]1C4=C(CC[C@@]13C)C(=O)OC4)[C@@H]2OC(=O)CN(C)C | Not satisfied |
| Cc1cc(NC(=O)c2ccc(N)cc2)ccc1N=Nc1ccc2c(O)c(N=Nc3ccc(Cl)c(S(=O)(=O)O)c3)c(S(=O)(=O)O)cc2c1 | Satisfied |
| Cc1cccc(Cl)c1NC(=O)c1ccc2nc(NC(=O)NC3CC(C)(C)NC(C)(C)C3)sc2c1 | Not satisfied |
| O=C(CSc1nc2c(n1Nc1ccccc1)-c1ccccc1SC2)Nc1nc(-c2ccc(Cl)cc2)cs1 | Satisfied |
| COc1cc(/C=C/C(=O)N2CCN(C(=O)/C=C/c3ccccc3)CC2)cc(OC)c1OC | Satisfied |

# input Hi team, for "COc1ccc(-c2csc(NC(=O)c3cc(OC)c(OC)c(OC)c3)n2)cc1" , is the recorded growth at or above 80%?
# output Satisfied

# input Hi team, for "CN(C)c1ccc(/C=C\c2ccnc3ccccc23)cc1" , is the recorded growth at or above 80%?
# output Not satisfied

# input Hi team, for "CCCCCCCCCCCCCCCCCC1=NC(C)(C)CN1CCO" , is the recorded growth at or above 80%?
# output Not satisfied

# input Hi team, for CC(=O)Oc1ccc(C23c4ccccc4C2(OC(C)=O)c2cc(OC(C)=O)ccc23)cc1 (stereo not given) , is the recorded growth at or above 80%?
# output Satisfied

# input Hi team, for "Cc1cc([N+](=O)[O-])c(C)cc1C(=O)O" , is the recorded growth at or above 80%?
# output Satisfied
